Where do the numbers come from? From PubChem BioAssay.

Attribute: z-score
- EXPERIMENT_NOTES: forskolin-driven CRE-LacZ activity in PC12 – cell-based, CRE-LacZ reporter, forskolin-stimulated, primary screen (AID 1146);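 further: PC12 cells with 6xCRE LacZ reporter stimulated by forskolin 10 µM; beta-galactosidase reporter signal reflecting CREB driven transcription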
- CONDITION_DETAILS: luminescence, 4.5 h, higher = more signal, called active from +8 up or from −8 down
Active and inactive are the calls of the source.

Some molecules with known z-score results, for comparison:
CCCCC=C[C@@H](NC(=O)CCc1ccccc1)c1ccccc1    -0.0104 (inactive)
CC(C)=CCCC(C)=CC(O)C1C=CC2C(=O)N(c3ccccc3)C(=O)C2N1Nc1ccc([N+](=O)[O-])cc1 (stereo not drawn)    -0.0578 (inactive)
CN1C(=O)C2C=CC(C(O)C3CCCCC3)N(N(c3ccccc3)c3ccccc3)C2C1=O (stereo not drawn)    0.355 (inactive)
O=C1CSC(c2cccc([N+](=O)[O-])c2)N1c1ccccc1 (stereo not drawn)    -0.567 (inactive)
CN(C)C(=O)[C@]1(Cc2ccccc2N=[N+]=[N-])N=C(c2ccc(OCCCO)cc2)O[C@@H]1c1ccccc1CN=[N+]=[N-]    0.367 (inactive)
CN(C)C(=O)[C@@]1(CCC(=O)OC(C)(C)C)N=C(c2ccc(OCCCO)cc2)O[C@H]1c1ccccc1N=[N+]=[N-]    -1.33 (inactive)
C=CC[C@]1(C(=O)NCC(O)CO)N=C(c2ccc(OCCCO)cc2)O[C@H]1c1ccccc1N=[N+]=[N-] (stereo partly drawn)    -0.652 (inactive)
O=C(N1CCOCC1)[C@@]1(CCS(=O)(=O)c2ccccc2)COC(c2ccc(OCCCO)cc2)=N1    1.58 (inactive)
C=CCOC(=O)[C@@H]1[C@H]2C(=O)O[C@H](c3ccccc3)[C@H](c3ccccc3)N2[C@H](c2ccc(OCCOC(=O)[C@@H]3C[C@@H]4C(=O)N5CCC[C@H]5C(=O)N4[C@@H]3c3cccc(OCCO)c3)cc2)[C@@]12C(=O)Nc1ccc(I)cc12    -0.725 (inactive)
Cc1ccc(S[C@]2(C(=O)NCc3ccccc3)CC(=O)N(C3Cc4ccccc4C3)[C@@H]2c2ccc(CO)cc2I)cc1    -0.17 (inactive)

--- query ---
## Task Query (molecule): C[C@@H]1ON(c2ccccc2)[C@H](c2ccccc2)[C@H]1C(=O)N1C(=O)OC[C@H]1Cc1ccccc1 ; field requested: z-score
## Result 0.053 (inactive)

---

- System: XIP peptide (Xip251-270) binding
- EXPERIMENT_NOTES: XIP fragment 251-270 binding compounds – biochemical, small-molecule microarray, fluorescence 635/667 nm, 0.1 µg/mL protein, primary screen (AID 1182)
- CONDITION_DETAILS: fluorescent protein binding, 635 nm, higher = more signal, called active from +8 up or from −8 down
Lab note: compare composite z-score against 0.5. Equal or greater, write Criterion met. Smaller, write Criterion not met.

O=C1C2C=CC(C(O)c3ccccn3)N(Nc3ccccc3)C2C(=O)N1c1ccccc1 (configuration not stated)    Criterion not met
CC(C)CN1C(=O)[C@@]2(Cc3ccccc31)c1ccccc1C(=O)N(Cc1ccccc1)[C@H]2c1ccc(CO)cc1    Criterion met
O=C(O)[C@]1(CCS(=O)(=O)c2ccccc2)N=C(c2ccc(OCCCO)cc2)O[C@@H]1c1ccccc1    Criterion met

## Task Textbook exercise: given the entry COC(=O)[C@@]1(Cc2ccccc2)[C@H]2c3cc(C(=O)N4CCCC4)n(Cc4ccccc4)c3C[C@H]2CN1C(=O)c1ccccc1 , state whether its composite z-score is greater than or equal to 0.5.
## Result Criterion met

## Task Textbook exercise: given the entry CN(C)CCCN1C(=O)[C@@]2(Cc3ccccc31)c1ccccc1C(=O)N(Cc1ccccc1)[C@H]2c1ccc(CO)cc1 , state whether its composite z-score is greater than or equal to 0.5.
## Result Criterion not met

## Task Textbook exercise: given the entry C=CCC(OC(C)=O)[C@@H]1[C@@H](N(Cc2ccc(-c3ccccc3)cc2)C(=O)c2cccc3ccccc23)c2cc(OCCCO)ccc2N1C(=O)c1ccc2ccccc2n1 (some centres not stated) , state whether its composite z-score is greater than or equal to 0.5.
## Result Criterion not met
